Where these numbers come from: ChEMBL document CHEMBL3826928

Target: Toll-like receptor 7 (Homo sapiens)
Sequence (Q9NYK1 whole entry): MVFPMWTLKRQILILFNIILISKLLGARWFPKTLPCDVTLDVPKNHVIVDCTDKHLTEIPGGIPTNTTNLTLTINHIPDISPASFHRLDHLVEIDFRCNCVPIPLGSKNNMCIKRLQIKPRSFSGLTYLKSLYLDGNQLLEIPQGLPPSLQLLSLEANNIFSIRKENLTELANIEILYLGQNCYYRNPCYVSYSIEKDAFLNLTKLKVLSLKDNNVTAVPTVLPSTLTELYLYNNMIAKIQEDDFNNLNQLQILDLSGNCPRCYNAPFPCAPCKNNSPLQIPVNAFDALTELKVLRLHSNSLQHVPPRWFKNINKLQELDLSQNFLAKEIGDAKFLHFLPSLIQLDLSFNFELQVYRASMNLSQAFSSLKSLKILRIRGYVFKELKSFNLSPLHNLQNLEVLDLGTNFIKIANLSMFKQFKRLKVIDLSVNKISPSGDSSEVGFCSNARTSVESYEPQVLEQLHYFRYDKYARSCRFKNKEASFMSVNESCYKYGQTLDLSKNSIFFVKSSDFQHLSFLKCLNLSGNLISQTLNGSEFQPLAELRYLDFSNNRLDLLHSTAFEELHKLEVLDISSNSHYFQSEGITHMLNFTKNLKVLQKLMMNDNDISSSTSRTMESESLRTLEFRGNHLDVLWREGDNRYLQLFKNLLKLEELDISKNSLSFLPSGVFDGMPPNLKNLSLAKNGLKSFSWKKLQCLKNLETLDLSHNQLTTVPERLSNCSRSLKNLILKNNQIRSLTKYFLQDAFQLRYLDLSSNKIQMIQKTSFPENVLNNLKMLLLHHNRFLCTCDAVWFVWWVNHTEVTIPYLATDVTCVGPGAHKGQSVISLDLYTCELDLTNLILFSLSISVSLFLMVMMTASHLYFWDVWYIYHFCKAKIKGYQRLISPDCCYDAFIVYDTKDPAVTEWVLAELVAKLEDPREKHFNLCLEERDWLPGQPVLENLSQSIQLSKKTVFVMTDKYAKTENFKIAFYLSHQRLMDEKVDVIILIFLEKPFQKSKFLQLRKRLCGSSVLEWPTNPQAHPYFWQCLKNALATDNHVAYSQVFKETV
Assay: Agonist activity at TLR7 in human PBMC assessed as induction of IL-6 secretion in supernatant after 18 hrs
Conditions: read-out: EC50
endpoint-name: log10(EC50) (log10 of the value in nM)
Scale type: logarithmic (base 10). Underlying EC50 unit: nM.

Past entries and their recorded results:
mol | log10(EC50)
Cc1cc(OCCCC(F)(F)P(=O)(O)O)ccc1CCc1cnc2c(N)nc3cc(CCC(=O)O)ccc3c2c1 | 2.56
Cc1ccc2c(c1)nc(N)c1ncc(CCc3ccc(OCCOCCOCCP(=O)(O)O)cc3C)cc12 | 3.91

Continue with the compound presented below.
Enquiry: Please provide the recorded log10(EC50) for COc1ccc(CCc2cnc3c(N)nc4cc(C(=O)C(F)(F)P(=O)(O)O)ccc4c3c2)c(C)c1 , tested on Toll-like receptor 7 (Homo sapiens).
Return: 3.89

* * *

biological target: UniProt Q9NYK1; experiment: Agonist activity at TLR7 in human PBMC assessed as induction of IL-6 secretion in supernatant after 18 hrs relative to resiquimod; type: cell-based
endpoint-name: %max

mol | reading
Cc1cc(OCCOCCOCCP(=O)(O)O)ccc1CCc1cnc2c(N)nc3cc(CCC(=O)O)ccc3c2c1 | 58%
Cc1cc(OCCOCCOCCC(F)(F)P(=O)(O)O)ccc1CCc1cnc2c(N)nc3cc(CCC(=O)O)ccc3c2c1 | 35%
Cc1cc(OCCCC(F)(F)P(=O)(O)O)ccc1CCc1cnc2c(N)nc3cc(CCC(=O)O)ccc3c2c1 | 35%
Cc1ccc2c(c1)nc(N)c1ncc(CCc3ccc(OCCOCCOCCP(=O)(O)O)cc3C)cc12 | 55%

Now take the following molecule into account.
Enquiry: Form: Entry = Cc1ccc2c(c1)nc(N)c1ncc(CCc3ccc(OCCOCCOCCC(F)(F)P(=O)(O)O)cc3C)cc12 | System = UniProt Q9NYK1 | %max = ____
Return: 36%
